Measured values drawn from the supplement of paper PMC6279402 for this set.

Tested on: A549
Assay Overview: relative viability (normalised to negative control = 1, bortezomib = 0) (fraction); higher = less cytotoxic
Condition Info: inflammatory serum-free RHB-A with cytokines + LPS; 5 d + 24 h CellTiter-Blue; compound 300 nM; GSK126 pretreatment: 5 uM GSK126
Reported Endpoint: relative viability
Give bare numbers.

Examples with answers:
O=C1NC(=O)/C(=C\c2ccc3nccnc3c2)S1
0.915
CN(c1ncccc1CNc1nc(Nc2ccc3c(c2)CC(=O)N3)ncc1C(F)(F)F)S(C)(=O)=O
0.907
CS(=O)(=O)OCCCCOS(C)(=O)=O
0.916

Pending compound:
Exam item: Provide one value: measured relative viability of "N#C/C(=C/c1ccc(O)c(O)c1)C(=O)NCc1ccccc1"
Marked response: 0.879
